- Method Summary: Toxicity liver stage against HepG2, at 10uM
- Format: cell-based
- Parameters: test concentration 10 uM, cell line HepG2-A16-CD81EGFP
- Assay Context: human, HepG2-A16-CD81EGFP cells; read-out: INHIBITION
# reported cytotoxicity at 10 µM; entries follow
Write the numeric value and append its unit.

Molecule	cytotoxicity at 10 µM
CCC(C(=O)N1CCS(=O)(=O)CC1)n1cccn1 (configuration not stated)	1.28%
CC1=C(c2ccc(C)cc2)S(=O)(=O)N=C1N1CCc2ccccc21	-7.12%
NC(=O)CN1C(=O)CO[C@H]2CN(Cc3ccccc3)C[C@H]21	0.67%
COC(=O)c1cccc(S(=O)(=O)Nc2ccc(Cl)c(C(N)=O)c2)c1	7.31%
O=C(NCC1(CO)CC1)c1ccccc1Br	-0.734%

Lab book: cytotoxicity at 10 µM of "Cc1cccc(N2CCN(C(=O)CNCCn3cc(C)cn3)CC2)c1" noted as -2.83%

Lab book: cytotoxicity at 10 µM of "CNC(=O)CN1CCOCC12CCN(C(=O)c1ccc(C)cc1)CC2" noted as -87.6%

Lab book: cytotoxicity at 10 µM of CC(O)(CNC(=O)NCCc1ccc2c(c1)CCO2)c1ccsc1 (configuration not stated) noted as 7.4%

Lab book: cytotoxicity at 10 µM of "O=C(NCC1CCC2(CC1)OCCO2)c1cccc(-n2cccn2)c1" noted as 0.477%

Lab book: cytotoxicity at 10 µM of Cc1cnn(CC2CCCCN2Cc2ncc(C(C)(C)C)o2)c1 (configuration not stated) noted as -3.44%

Lab book: cytotoxicity at 10 µM of "OCc1cccc(OCc2ccon2)c1" noted as 0.266%

Lab book: cytotoxicity at 10 µM of "Cn1ccc2ccc(C(=O)N3CCN(C(=O)OC(C)(C)C)CC3)cc21" noted as 18.1%

###

- Method Summary: Toxicity liver stage against HepG2, at 10uM
- Type: cell-based
- Parameters: test concentration 10 uM, cell line HepG2-A16-CD81EGFP
- Assay Context: human, HepG2-A16-CD81EGFP cells; read-out: INHIBITION
Attribute Measured: cytotoxicity at 10 µM (%)
API: value field is a number in %; no unit string.

In the examples that follow, each entry is paired with its recorded cytotoxicity at 10 µM.
Molecule	Units Of Measure	cytotoxicity at 10 µM
CCc1nc2ccccc2c(=O)n1CC1(O)CCN(C(=O)C(C)C)CC1	%	-24.3
Cc1nc(-c2ccc(S(=O)(=O)N3CCCCC3)cc2)co1	%	-2.5
CCOCC1CN(C(=O)c2cnoc2C)Cc2cnn(C)c21 (centres undefined)	%	0.384
CN(C)C[C@H]1C[C@@H]2CN(C(=O)c3ccno3)C[C@@H]2O1	%	-6.32
Cc1ccc(S(C)(=O)=O)cc1NCC(=O)NCCC1=CCCCC1	%	0.846

Lab book: cytotoxicity at 10 µM of COC(=O)CCNC(=O)c1ccoc1CN1c2ccccc2CC1C (centres undefined) noted as -9.23

Lab book: cytotoxicity at 10 µM of "CN(C)C[C@@H]1CCC[C@@H]2CN(c3nccc(C(F)(F)F)n3)C[C@@H]21" noted as -2.75

Lab book: cytotoxicity at 10 µM of "Cc1cccc(C(=O)N2Cc3ccccc3C3(CCN(C)CC3)C2)n1" noted as -73.5

Lab book: cytotoxicity at 10 µM of COCC1c2nnn(C)c2CCN1C(=O)Cc1ccc2c(c1)OCO2 (centres undefined) noted as 9.46

Lab book: cytotoxicity at 10 µM of Cn1c(C(=O)N2CCc3[nH]cnc3C2C(=O)O)ccc1-c1ccccc1 (centres undefined) noted as -0.392

###

# reported cytotoxicity at 10 µM; entries follow
- Method Summary: Toxicity liver stage against HepG2, at 10uM
- Type: cell-based
- Design: test concentration 10 uM, cell line HepG2-A16-CD81EGFP
- Assay Context: human, HepG2-A16-CD81EGFP cells; read-out: INHIBITION
Write the numeric value and append its unit.

Compound	cytotoxicity at 10 µM
CN1CCC(N(C)C(=O)CCc2ccc(F)c(F)c2)C1=O (configuration not stated)	-17.7%
CCC(O)CN1CCN(C(=O)c2sccc2C(C)C)CC1 (configuration not stated)	6.89%
O=C1NCCCCC1NS(=O)(=O)N1CCCCCC1 (configuration not stated)	4.15%
Cc1ccc(CN(C)CC2(O)CCCN(C)C2)o1 (configuration not stated)	-8.08%
CCN(CC)C(=O)c1nnsc1-c1ccccc1	1.88%
CN(C)C(=O)NCc1cc(=O)n2c(n1)CN(Cc1ccoc1)CCC2	-99.3%

Lab book: cytotoxicity at 10 µM of "COC(=O)C(C)(C)NC(=O)c1cc(COc2ccccc2OC)[nH]n1" noted as -4.83%

Lab book: cytotoxicity at 10 µM of "CN(C)c1ncccc1C(=O)N1CCN(C2=NCC(C)(C)S2)CC1" noted as 5.03%

Lab book: cytotoxicity at 10 µM of Cc1ncc(CC(=O)N2CCCCC2CCN2CCCC2)c(=O)[nH]1 (configuration not stated) noted as -9.2%

Lab book: cytotoxicity at 10 µM of "CN1CC2(CCN(C(=O)c3ccc(-n4cnnc4)cc3Cl)CC2)OC1=O" noted as 4.03%

Lab book: cytotoxicity at 10 µM of "CC(C)(O)CNC(=O)NCc1nccn1CCc1ccccc1" noted as 3.04%

Lab book: cytotoxicity at 10 µM of "Cc1cc(CN2CC[C@H]3C[C@H](c4nccs4)O[C@@H]3C2)no1" noted as 3.22%

###

- Method Summary: Toxicity liver stage against HepG2, at 10uM
- Format: cell-based
- Parameters: test concentration 10 uM, cell line HepG2-A16-CD81EGFP
- Assay Context: human, HepG2-A16-CD81EGFP cells; read-out: INHIBITION
Attribute Measured: cytotoxicity at 10 µM (%)
API: value field is a number in %; no unit string.

In the examples that follow, each entry is paired with its recorded cytotoxicity at 10 µM.
Compound	Units Of Measure	cytotoxicity at 10 µM
CC(C)c1noc(CN2CCC(C3CCCCCN3S(C)(=O)=O)CC2)n1 (centres undefined)	%	-2.71
CCS(=O)(=O)N1Cc2nccn2CC(Cn2cccn2)C1 (centres undefined)	%	10.7
CC(Cn1cccn1)NCc1csc(-c2ccc(F)cc2)n1 (centres undefined)	%	-67.9
Cc1cnc(CNC(=O)NC2CCCN(c3ccccc3F)C2)s1 (centres undefined)	%	16.4
O=C([C@H]1COC[C@H]2CN(C3CCCCC3)C[C@H]21)N1CCOCC1	%	-110

From here, focus on the item given below.
Lab book: cytotoxicity at 10 µM of "COc1cccc(-c2nc(CNCCc3cccnc3)cs2)c1" noted as -1.77

###

# reported cytotoxicity at 10 µM; entries follow
- Method Summary: Toxicity liver stage against HepG2, at 10uM
- Assay type: cell-based
- Parameters: test concentration 10 uM, cell line HepG2-A16-CD81EGFP
- Assay Context: human, HepG2-A16-CD81EGFP cells; read-out: INHIBITION
Write the numeric value and append its unit.

Lab book: cytotoxicity at 10 µM of "Cc1nc(CNC(=O)c2cc(COc3ccccc3F)[nH]n2)n[nH]1" noted as -7.42%

Lab book: cytotoxicity at 10 µM of Nc1cc(-c2c[nH]nc2C2CCCN2S(=O)(=O)c2ccccc2)ccn1 (stereo not drawn) noted as 6.34%

Lab book: cytotoxicity at 10 µM of "NC(=O)NCC(=O)N1C[C@@H]2CC[C@H]1CN(C1Cc3ccccc3C1)C2" noted as 15.3%

Lab book: cytotoxicity at 10 µM of "CCN(Cc1ccncc1)Cc1c[nH]nc1-c1ccc(F)cc1" noted as -5.83%

Lab book: cytotoxicity at 10 µM of "Cc1ccc(CN(CCN(C)C)C(=O)Nc2cnn(C)c2)s1" noted as 4.16%

Lab book: cytotoxicity at 10 µM of CC(NC(=O)N1CCCC1)c1ccc(S(N)(=O)=O)cc1 (stereo not drawn) noted as -8.2%

Lab book: cytotoxicity at 10 µM of "Cc1cc(Br)ccc1C(=O)Nc1c(C(N)=O)n[nH]c1C" noted as -2.58%

Lab book: cytotoxicity at 10 µM of CC(C)NC(=O)N1CCN(C(=O)c2ccco2)CC2(CC(=O)N(C)C2)C1 (stereo not drawn) noted as 6.15%

Lab book: cytotoxicity at 10 µM of CC(C)NCC1(O)CCCN(CCC2CCCCC2)C1=O (stereo not drawn) noted as -2.53%

Lab book: cytotoxicity at 10 µM of "COc1ccc(-n2cc3nc(N)[nH]cc-3c2=O)cc1" noted as 6.25%

Lab book: cytotoxicity at 10 µM of "CCN(CC)C(=O)[C@@H]1C[C@@H](N)CN1c1nc(N2CCCC2)nc(C)c1C" noted as -6.9%

Lab book: cytotoxicity at 10 µM of "CSc1nc(C2CC2)nc(C)c1C(=O)NCc1ccco1" noted as 5.25%

Lab book: cytotoxicity at 10 µM of "Cc1cccnc1CCNC(=O)[C@@]12CNC[C@@H]1CN(S(C)(=O)=O)C2" noted as -0.973%

Lab book: cytotoxicity at 10 µM of CNc1cc(C(=O)N2CCCCC2CCn2ccnc2C)ccn1 (stereo not drawn) noted as 1.85%

Lab book: cytotoxicity at 10 µM of "NC(=O)C1CCN(C(=O)Cc2cnc(-c3c(Cl)cccc3Cl)s2)CC1" noted as -2.23%

Lab book: cytotoxicity at 10 µM of "CC(=O)N1CCC(NC(=O)N2CCN(c3cnccn3)CC2)CC1" noted as 6.47%

Lab book: cytotoxicity at 10 µM of "CC(C)(C)OC(=O)NCCNC(=O)c1cnc(-c2ccccc2)nc1" noted as 8.12%

Lab book: cytotoxicity at 10 µM of "COCCCNC(=O)CN(C)C(=O)c1cc(Cl)ccc1O" noted as -1.84%

Lab book: cytotoxicity at 10 µM of O=C(O)c1ccccc1CN1CCCC(Cc2ccn[nH]2)C1 (stereo not drawn) noted as 2.79%

Lab book: cytotoxicity at 10 µM of CCC1(CC)CC(=O)N(CC(O)c2ccc(Cl)cc2)C1=O (stereo not drawn) noted as 4.06%

Lab book: cytotoxicity at 10 µM of "CC(=O)N1CCO[C@@H]2CN(C(=O)c3ccc4ccccc4c3)CC[C@@H]2C1" noted as 1.35%

Lab book: cytotoxicity at 10 µM of "Cc1cc(C2CCC2)nc(N2CCN(Cc3nccn3C)CC2)n1" noted as -6.86%

Lab book: cytotoxicity at 10 µM of "CC(C)(C(=O)NCc1n[nH]c(=O)[nH]1)c1ccc(F)cc1" noted as 7.52%
